Please provide measured half-life for the entries that follow.
ASSAY OVERVIEW: Mouse pharmacokinetic study, oral administration
Assay type: in vivo
CONDITION SUMMARY: male; mouse plasma, PO at 5 mg/kg; read-out: Half-life t1/2

Recorded half-life of CC(c1ccc(Nc2cc(Nc3ncccc3S(C)(=O)=O)ncn2)nc1C(F)(F)F)N1CC2(COC2)C1 (stereo in doubt) , please.
> 1.5 h

Then what about the molecule `Cc1nc(Nc2cc(Nc3ncccc3S(C)(=O)=O)ncn2)ccc1NC1(C)COC1` ?
< 1 h

Then what about the molecule `C[C@H]1CN(C2CC2)CCN1c1ccc(Nc2cc(Nc3ncccc3S(C)(=O)=O)ncn2)nc1` ?
> 1.5 h

Then what about the molecule `C[C@@H](c1ccc(Nc2cc(Nc3ncccc3S(C)(=O)=O)ncn2)nc1)N1CC2(COC2)C1` ?
1 to 1.5 h

Then what about the molecule `C[C@@H](c1ccc(Nc2cc(Nc3ncccc3S(C)(=O)=O)ncn2)nc1)N(C)C` ?
1 to 1.5 h

---

ASSAY OVERVIEW: Mouse pharmacokinetic study, oral administration
Format: in vivo
CONDITION SUMMARY: male; mouse plasma, PO at 5 mg/kg; read-out: Total systemic exposure AUCinf
Please provide measured AUC(0-inf) for the entries that follow.

Recorded AUC(0-inf) of C[C@@H](c1ccc(Nc2cc(Nc3ncc(F)cc3S(C)(=O)=O)ncn2)nc1)N1CC2(COC2)C1 [Compound 2] , please.
> 2000 ng·h/mL

Then what about the compound C[C@@H](c1ccc(Nc2cc(Nc3ncccc3S(C)(=O)=O)ncn2)nc1)N(C)C [Compound 4] ?
< 1000 ng·h/mL

Then what about the compound CS(=O)(=O)c1cccnc1Nc1cc(Nc2ccc3c(n2)CCCC3N2CC3(COC3)C2)ncn1 (stereo in doubt) [Compound 5] ?
> 2000 ng·h/mL

Then what about the compound Cc1nc(Nc2cc(Nc3ncccc3S(C)(=O)=O)ncn2)ccc1[C@H](C)N1CC2(COC2)C1 (stereo in doubt) [Compound 12] ?
1000 to 2000 ng·h/mL

Then what about the compound Cc1nc(Nc2cc(Nc3ncccc3S(C)(=O)=O)ncn2)ccc1NC1(C)COC1 [Compound 6] ?
> 2000 ng·h/mL

Then what about the compound CC(c1ccc(Nc2cc(Nc3ncccc3S(C)(=O)=O)ncn2)nc1C(F)(F)F)N1CC2(COC2)C1 (stereo in doubt) [Compound 11] ?
> 2000 ng·h/mL

Then what about the compound Cc1ccnc(Nc2cc(Nc3ccccc3S(C)(=O)=O)ncn2)c1 [Compound 44] ?
< 1000 ng·h/mL

Then what about the compound C[C@@H](c1ccc(Nc2cc(Nc3ncccc3S(C)(=O)=O)ncn2)nc1)N1CC2(COC2)C1 [Compound 1] ?
1000 to 2000 ng·h/mL

Then what about the compound C[C@H]1CN(C2CC2)CCN1c1ccc(Nc2cc(Nc3ncccc3S(C)(=O)=O)ncn2)nc1 [Compound 8] ?
1000 to 2000 ng·h/mL

---

TARGET OR TEST SYSTEM: TYK2-JH2 (Homo sapiens, UniProt P29597)
Construct: TYK JH2 enzyme mix (ChemPartner: CP20210818A-BV); purchased ChemPartner CP20210818A-BV
Sequence (P29597 589-875 limits assumed): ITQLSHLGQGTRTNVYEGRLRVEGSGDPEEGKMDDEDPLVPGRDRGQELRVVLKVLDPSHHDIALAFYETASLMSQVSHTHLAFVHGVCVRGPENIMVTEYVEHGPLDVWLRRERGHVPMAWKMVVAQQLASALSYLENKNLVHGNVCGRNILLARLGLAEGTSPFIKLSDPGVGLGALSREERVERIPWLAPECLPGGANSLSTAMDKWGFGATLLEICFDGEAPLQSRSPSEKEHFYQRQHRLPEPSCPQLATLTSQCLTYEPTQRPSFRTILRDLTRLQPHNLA
ASSAY OVERVIEW: TYK2-JH2 HTRF binding assay (ligand efficiency)
CONDITION SUMMARY: calculated (Equation 1) from IC50 of the TYK-JH2 binding assay
EXPERIMENTAL ENDPOINT: Ligand Efficiency

Reference set, count: 5
CC1(Nc2ccc(Nc3cc(Nc4ncccc4S(C)(=N)=O)ncn3)nc2)COC1 (centres unmarked); ††† (†††: >0.39)
COc1ccc(Nc2cc(NC(=O)C3CC3)ncn2)c(C(N)=O)c1; ††† (†††: >0.39)
Cn1cc(-c2ccnc(Nc3cc(Nc4ccc(NC5(C)COC5)cn4)ncn3)c2S(C)(=O)=O)cn1; † (†: <0.37)
Cn1ccc(Nc2cc(Nc3ccccc3S(C)(=O)=O)ncn2)n1; ††† (†††: >0.39)
Cc1cccc(Nc2cc(Nc3ccncc3C(N)=O)ncn2)n1; ††† (†††: >0.39)

Below: the item to evaluate.
Provide value of Ligand Efficiency for this record tested with TYK2-JH2 (Homo sapiens, UniProt P29597): `C[C@@H](c1ccc(Nc2cc(Nc3ncccc3S(C)(=O)=O)ncn2)nc1)N1CC2(CCOC2)C1`
††† (†††: >0.39)

---

Please provide measured half-life for the entries that follow.
ASSAY OVERVIEW: Mouse pharmacokinetic study, oral administration
Type: in vivo
CONDITION SUMMARY: male; mouse plasma, PO at 5 mg/kg; read-out: Half-life t1/2

Recorded half-life of Cc1nc(Nc2cc(Nc3ncccc3S(C)(=O)=O)ncn2)ccc1[C@H](C)N1CC2(COC2)C1 (stereo in doubt) , please.
< 1 h

Then what about the compound CS(=O)(=O)c1cccnc1Nc1cc(Nc2ccc3c(n2)CCCC3N2CC3(COC3)C2)ncn1 (stereo in doubt) ?
> 1.5 h

Then what about the compound `C[C@@H](c1ccc(Nc2cc(Nc3ncc(F)cc3S(C)(=O)=O)ncn2)nc1)N1CC2(COC2)C1` ?
1 to 1.5 h

Then what about the compound `Cc1ccnc(Nc2cc(Nc3ccccc3S(C)(=O)=O)ncn2)c1` ?
> 1.5 h

---

TARGET OR TEST SYSTEM: TYK2-JH2 (Homo sapiens, UniProt P29597)
Construct: TYK JH2 enzyme mix (ChemPartner: CP20210818A-BV); purchased ChemPartner CP20210818A-BV
ASSAY OVERVIEW: TYK2-JH2 HTRF binding assay (ligand efficiency)
CONDITION SUMMARY: calculated (Equation 1) from IC50 of the TYK-JH2 binding assay
EXPERIMENTAL ENDPOINT: Ligand Efficiency

Reference set, count: 5
C[C@@H](c1ccc(Nc2cc(Nc3ncc(F)cc3S(C)(=O)=O)ncn2)nc1)N1CC2(COC2)C1; ††† (†††: >0.39)
Cc1nc(Nc2cc(Nc3ncccc3S(C)(=O)=O)ncn2)ccc1[C@H](C)N1CC2(COC2)C1 (stereo in doubt); ††† (†††: >0.39)
Cc1cccc(Nc2cc(Nc3cccnc3C(N)=O)ncn2)n1; ††† (†††: >0.39)
Cn1ccc(Nc2cc(Nc3ccccc3C(N)=O)ncn2)n1; ††† (†††: >0.39)
Cc1cccc(Nc2cc(Nc3cnccc3C(N)=O)ncn2)n1; ††† (†††: >0.39)

Below: the item to evaluate.
Recorded Ligand Efficiency of `CS(=O)(=O)c1cccnc1Nc1cc(Nc2ccc(N3CCN(C4CC4)CC3)cn2)ncn1` , please.
††† (†††: >0.39)

---

Please provide measured Cmax for the entries that follow.
ASSAY OVERVIEW: Mouse pharmacokinetic study, oral administration
Format: in vivo
CONDITION SUMMARY: male; mouse plasma, PO at 5 mg/kg; read-out: Maximum plasma concentration Cmax

Recorded Cmax of `C[C@H]1CN(C2CC2)CCN1c1ccc(Nc2cc(Nc3ncccc3S(C)(=O)=O)ncn2)nc1` , please.
800 to 1500 ng/mL

Then what about the molecule CC(c1ccc(Nc2cc(Nc3ncccc3S(C)(=O)=O)ncn2)nc1C(F)(F)F)N1CC2(COC2)C1 (stereo in doubt) ?
800 to 1500 ng/mL

Then what about the molecule `Cc1ccnc(Nc2cc(Nc3ccccc3S(C)(=O)=O)ncn2)c1` ?
< 800 ng/mL

Then what about the molecule `C[C@@H](c1ccc(Nc2cc(Nc3ncccc3S(C)(=O)=O)ncn2)nc1)N1CC2(COC2)C1` ?
< 800 ng/mL

Then what about the molecule `C[C@@H](c1ccc(Nc2cc(Nc3ncccc3S(C)(=O)=O)ncn2)nc1)N(C)C` ?
< 800 ng/mL

Then what about the molecule `Cc1nc(Nc2cc(Nc3ncccc3S(C)(=O)=O)ncn2)ccc1NC1(C)COC1` ?
> 1500 ng/mL

Then what about the molecule Cc1nc(Nc2cc(Nc3ncccc3S(C)(=O)=O)ncn2)ccc1[C@H](C)N1CC2(COC2)C1 (stereo in doubt) ?
> 1500 ng/mL

Then what about the molecule `C[C@@H](c1ccc(Nc2cc(Nc3ncc(F)cc3S(C)(=O)=O)ncn2)nc1)N1CC2(COC2)C1` ?
> 1500 ng/mL

Then what about the molecule CS(=O)(=O)c1cccnc1Nc1cc(Nc2ccc3c(n2)CCCC3N2CC3(COC3)C2)ncn1 (stereo in doubt) ?
> 1500 ng/mL

---

TARGET OR TEST SYSTEM: TYK2-JH2 (Homo sapiens, UniProt P29597)
Construct: TYK JH2 enzyme mix (ChemPartner: CP20210818A-BV); purchased ChemPartner CP20210818A-BV
ASSAY OVERVIEW: TYK2-JH2 HTRF binding assay (ligand efficiency)
CONDITION SUMMARY: calculated (Equation 1) from IC50 of the TYK-JH2 binding assay
EXPERIMENTAL ENDPOINT: Ligand Efficiency

Cc1cncc(Nc2cc(Nc3ccccc3C(N)=O)ncn2)n1; ††† (†††: >0.39)
CC(c1ccc(Nc2cc(Nc3ncccc3S(C)(=O)=O)ncn2)nc1)N1CC2(CC(F)C2)C1 (stereo in doubt); ††† (†††: >0.39)
Cc1cccc(Nc2cc(Nc3ncccc3C(N)=O)ncn2)n1; ††† (†††: >0.39)
CS(=O)(=O)c1ccccc1Nc1cc(Nc2ccc(NC3COC3)cn2)ncn1; † (†: <0.37)
C[C@H]1CN(C)CCN1c1ccc(Nc2cc(Nc3ncccc3S(C)(=O)=O)ncn2)nc1; ††† (†††: >0.39)

Recorded Ligand Efficiency of CC(c1ccc(Nc2ncnc(Nc3ncccc3S(C)(=O)=O)c2F)nc1)N1CC2(COC2)C1 (centres unmarked) , please.
† (†: <0.37)

Then what about the compound `C[C@@H](c1ccc(Nc2cc(Nc3ncccc3S(C)(=O)=O)ncn2)nc1)N1CC2(COC2)C1` ?
††† (†††: >0.39)

Then what about the compound `C[C@@H](c1ccc(Nc2cc(Nc3ncccc3S(C)(=O)=O)ncn2)nc1)N(C)C` ?
††† (†††: >0.39)

Then what about the compound `CS(=O)(=O)c1cccnc1Nc1cc(Nc2ccc3c(n2)CC[C@@H]3N2CC3(COC3)C2)ncn1` ?
††† (†††: >0.39)

Then what about the compound `CC1(Nc2cnc(Nc3cc(Nc4ncccc4S(C)(=O)=O)ncn3)cn2)COC1` ?
††† (†††: >0.39)

Then what about the compound `C[C@@H](c1ccc(Nc2cc(Nc3ncc(Cl)cc3S(C)(=O)=O)ncn2)nc1)N1CC2(COC2)C1` ?
††† (†††: >0.39)
